- ASSAYED TARGET: T1, biotinylated hBLyS-ECD (human, UniProt Q9Y275 134-285, biotinylated with Biotin-X-X-NHS (molar ratio 7:1); sites not stated)
- T1 construct: also called biotinylated immunogen; biotinylated hBLvS-ECD
- T1 sequence (Q9Y275 134-285): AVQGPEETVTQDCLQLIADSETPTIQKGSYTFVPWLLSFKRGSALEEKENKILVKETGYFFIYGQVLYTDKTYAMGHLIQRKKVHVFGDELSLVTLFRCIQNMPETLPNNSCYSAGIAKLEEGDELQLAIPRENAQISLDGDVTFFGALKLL
- METHOD: competition ELISA; competitor 78C11D2D12
READOUT NAME: inhibitory rate (%)
Quick reminder: number only, in %, skip the unit.

[Q] Endpoint output: inhibitory rate (%) of 97A3C2H4 (antibody, V domains shown, Mouse hybridoma antibody purified on Protein G) VH: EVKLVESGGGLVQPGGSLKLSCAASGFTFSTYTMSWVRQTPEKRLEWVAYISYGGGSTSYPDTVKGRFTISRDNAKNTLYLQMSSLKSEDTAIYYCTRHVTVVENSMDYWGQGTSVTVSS VL: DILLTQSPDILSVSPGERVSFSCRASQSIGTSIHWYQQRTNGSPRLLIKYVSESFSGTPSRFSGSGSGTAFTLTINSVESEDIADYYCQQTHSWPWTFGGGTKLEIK . Value?
[A] 96

[Q] Endpoint output: inhibitory rate (%) of 78C11D2D12 (antibody, V domains shown, Mouse hybridoma antibody purified on Protein G) VH: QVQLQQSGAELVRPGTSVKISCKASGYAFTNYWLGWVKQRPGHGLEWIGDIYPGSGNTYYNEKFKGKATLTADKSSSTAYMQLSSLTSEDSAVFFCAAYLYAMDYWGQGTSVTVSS VL: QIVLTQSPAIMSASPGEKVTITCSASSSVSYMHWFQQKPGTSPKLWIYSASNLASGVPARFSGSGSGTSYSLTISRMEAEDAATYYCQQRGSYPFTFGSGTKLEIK . Value?
[A] 88

[Q] Endpoint output: inhibitory rate (%) of 93C6F10D3 (antibody, V domains shown, Mouse hybridoma antibody purified on Protein G) VH: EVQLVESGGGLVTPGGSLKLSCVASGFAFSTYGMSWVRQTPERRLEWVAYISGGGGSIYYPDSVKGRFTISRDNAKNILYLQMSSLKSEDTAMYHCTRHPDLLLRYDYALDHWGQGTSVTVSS VL: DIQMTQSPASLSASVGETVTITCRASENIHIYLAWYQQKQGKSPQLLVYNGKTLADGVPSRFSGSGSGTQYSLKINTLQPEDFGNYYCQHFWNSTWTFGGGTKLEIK . Value?
[A] 92

[Q] Endpoint output: inhibitory rate (%) of 111D10D6G3 (antibody, V domains shown, Mouse hybridoma antibody purified on Protein G) VH: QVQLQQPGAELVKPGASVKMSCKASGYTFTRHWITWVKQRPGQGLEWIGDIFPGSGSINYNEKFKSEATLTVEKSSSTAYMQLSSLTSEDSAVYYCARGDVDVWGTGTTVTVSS VL: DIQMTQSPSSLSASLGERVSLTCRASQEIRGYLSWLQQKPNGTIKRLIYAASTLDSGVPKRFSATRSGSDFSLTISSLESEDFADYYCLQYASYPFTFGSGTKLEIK . Value?
[A] 86

[Q] Endpoint output: inhibitory rate (%) of 67A2E1D10 (antibody, V domains shown, Mouse hybridoma antibody purified on Protein G) VH: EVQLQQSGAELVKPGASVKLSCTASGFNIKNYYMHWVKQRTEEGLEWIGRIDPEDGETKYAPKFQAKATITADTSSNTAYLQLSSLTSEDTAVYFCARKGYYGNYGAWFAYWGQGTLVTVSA VL: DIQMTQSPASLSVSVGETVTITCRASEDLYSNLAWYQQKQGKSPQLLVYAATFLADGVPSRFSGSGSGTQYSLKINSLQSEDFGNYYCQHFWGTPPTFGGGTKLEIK . Value?
[A] 80

[Q] Endpoint output: inhibitory rate (%) of 35E6F7C3 (antibody, V domains shown, Mouse hybridoma antibody purified on Protein G) VH: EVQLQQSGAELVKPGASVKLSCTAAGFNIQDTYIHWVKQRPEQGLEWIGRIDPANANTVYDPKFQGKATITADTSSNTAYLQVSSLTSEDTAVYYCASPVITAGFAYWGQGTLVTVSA VL: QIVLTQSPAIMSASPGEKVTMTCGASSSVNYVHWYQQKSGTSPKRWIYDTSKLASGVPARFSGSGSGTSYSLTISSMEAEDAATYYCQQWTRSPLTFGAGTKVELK . Value?
[A] 36

[Q] Endpoint output: inhibitory rate (%) of 8E7D9C7F5 (antibody, V domains shown, Mouse hybridoma antibody purified on Protein G) VH: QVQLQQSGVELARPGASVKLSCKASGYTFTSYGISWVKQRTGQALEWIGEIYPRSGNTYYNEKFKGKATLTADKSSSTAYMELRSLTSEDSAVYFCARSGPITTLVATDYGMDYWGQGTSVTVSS VL: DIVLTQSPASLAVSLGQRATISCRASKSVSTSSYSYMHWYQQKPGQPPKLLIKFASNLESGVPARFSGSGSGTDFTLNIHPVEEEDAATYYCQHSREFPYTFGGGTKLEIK . Value?
[A] 94
